Where do the numbers come from? From ChEMBL document CHEMBL4177706.

molecular target: Bromodomain-containing protein 2 (Homo sapiens); assay: Binding affinity to BRD2 bromodomain 1 (74 to 194 residues) (unknown origin) by ITC

test.smiles	assayed.system	quantity.unit	Kd
CC(=O)N1c2ccc(-c3ccsc3)cc2[C@H](NC(=O)OC(C)C)C[C@@H]1C	Bromodomain-containing protein 2 (Homo sapiens)	nM	71.7
CC(=O)N1c2ccc(-c3cccs3)cc2[C@H](NC(=O)OC(C)C)C[C@@H]1C	Bromodomain-containing protein 2 (Homo sapiens)	nM	61.3

###

target: Bromodomain-containing protein 2 (Homo sapiens, UniProt P25440)
Sequence (P25440 whole entry, the tested form may be a part): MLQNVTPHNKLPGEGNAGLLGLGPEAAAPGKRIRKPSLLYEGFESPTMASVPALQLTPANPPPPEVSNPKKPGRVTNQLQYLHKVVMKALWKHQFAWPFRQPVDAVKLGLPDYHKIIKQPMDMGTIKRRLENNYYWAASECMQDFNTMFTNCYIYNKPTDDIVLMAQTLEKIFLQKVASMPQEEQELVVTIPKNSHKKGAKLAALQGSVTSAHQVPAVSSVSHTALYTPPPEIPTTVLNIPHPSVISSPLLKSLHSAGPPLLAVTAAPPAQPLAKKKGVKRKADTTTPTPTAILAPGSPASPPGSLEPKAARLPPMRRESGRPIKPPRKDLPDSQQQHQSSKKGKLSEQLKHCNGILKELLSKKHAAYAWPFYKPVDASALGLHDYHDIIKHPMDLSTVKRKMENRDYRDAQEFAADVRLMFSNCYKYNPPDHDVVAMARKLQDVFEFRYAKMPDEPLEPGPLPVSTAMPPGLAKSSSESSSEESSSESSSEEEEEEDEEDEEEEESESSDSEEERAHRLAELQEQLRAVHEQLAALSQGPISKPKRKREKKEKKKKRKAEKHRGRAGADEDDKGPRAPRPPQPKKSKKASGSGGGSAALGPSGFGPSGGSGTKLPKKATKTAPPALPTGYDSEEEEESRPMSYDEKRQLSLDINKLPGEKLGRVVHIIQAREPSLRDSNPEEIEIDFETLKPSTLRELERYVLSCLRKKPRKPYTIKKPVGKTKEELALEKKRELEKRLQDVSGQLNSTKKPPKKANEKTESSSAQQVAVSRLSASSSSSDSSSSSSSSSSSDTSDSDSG
pIC50: −log10 of the molar value.

test.smiles	assayed.system	pIC50
CC(=O)N1c2ccc(-c3cccs3)cc2[C@H](NC(=O)OC(C)C)C[C@@H]1C	Bromodomain-containing protein 2 (Homo sapiens, UniProt P25440)	6.08
CC(=O)N1c2ccc(-c3cc[nH]c3)cc2[C@H](NC(=O)OC(C)C)C[C@@H]1C	Bromodomain-containing protein 2 (Homo sapiens, UniProt P25440)	6.39
CC(=O)N1c2ccc(-c3ccoc3)cc2[C@H](NC(=O)OC(C)C)C[C@@H]1C	Bromodomain-containing protein 2 (Homo sapiens, UniProt P25440)	5.72
CC(=O)N1c2ccc(-c3ccc[nH]3)cc2[C@H](NC(=O)OC(C)C)C[C@@H]1C	Bromodomain-containing protein 2 (Homo sapiens, UniProt P25440)	5.85
CC(=O)N1c2ccc(-c3ccc(C(=O)O)cc3)cc2[C@H](Nc2ccc(Cl)cc2)C[C@@H]1C	Bromodomain-containing protein 2 (Homo sapiens, UniProt P25440)	7.52
CC(=O)N1c2ccc(-c3ccsc3)cc2[C@H](NC(=O)OC(C)C)C[C@@H]1C	Bromodomain-containing protein 2 (Homo sapiens, UniProt P25440)	5.97

###

pIC50: recorded values
target: Bromodomain-containing protein 2 (Homo sapiens); assay: Inhibition of recombinant human BRD2 bromodomain 1 (49 to 170 residues) using biotin labeled peptide substrate preincubated for 15 mins followed by substrate addition measured after 1 hr by TR-FRET assay; type: single protein
pIC50: −log10 of the molar value.

test.smiles	pIC50
CC(=O)N1c2ccc(-c3ccoc3)cc2[C@H](NC(=O)OC(C)C)C[C@@H]1C	5.24
CC(=O)N1c2ccc(-c3cc[nH]c3)cc2[C@H](NC(=O)OC(C)C)C[C@@H]1C	5.61
CC(=O)N1c2ccc(-c3ccc(C(=O)O)cc3)cc2[C@H](Nc2ccc(Cl)cc2)C[C@@H]1C	6.14
CC(=O)N1c2ccc(-c3ccsc3)cc2[C@H](NC(=O)OC(C)C)C[C@@H]1C	5.28
CC(=O)N1c2ccc(-c3cccs3)cc2[C@H](NC(=O)OC(C)C)C[C@@H]1C	5.75
CC(=O)N1c2ccc(-c3ccc[nH]3)cc2[C@H](NC(=O)OC(C)C)C[C@@H]1C	5.85

###

species: Homo sapiens; experiment: Selectivity index, ratio of Kd for His-tagged BRD2 bromodomain 1 (unknown origin) to Kd for His-tagged BRD2 bromodomain 2 (unknown origin)

test.smiles	Selectivity Index
CC(=O)N1c2ccc(-c3ccoc3)cc2[C@H](NC(=O)OC(C)C)C[C@@H]1C	1.7
CC(=O)N1c2ccc(-c3cc[nH]c3)cc2[C@H](NC(=O)OC(C)C)C[C@@H]1C	1.4
CC(=O)N1c2ccc(-c3ccc[nH]3)cc2[C@H](NC(=O)OC(C)C)C[C@@H]1C	1.3
CC(=O)N1c2ccc(-c3ccsc3)cc2[C@H](NC(=O)OC(C)C)C[C@@H]1C	1.5
CC(=O)N1c2ccc(-c3cccs3)cc2[C@H](NC(=O)OC(C)C)C[C@@H]1C	1.1

###

molecular target: Bromodomain-containing protein 2 (Homo sapiens); assay: Binding affinity to His-tagged BRD2 bromodomain 2 (unknown origin) by SPR assay
pKd: −log10 of the molar value.
readout.label: pKd

test.smiles	recorded.result
CC(=O)N1c2ccc(-c3cc[nH]c3)cc2[C@H](NC(=O)OC(C)C)C[C@@H]1C	7.11
CC(=O)N1c2ccc(-c3ccoc3)cc2[C@H](NC(=O)OC(C)C)C[C@@H]1C	6.83
CC(=O)N1c2ccc(-c3ccc[nH]3)cc2[C@H](NC(=O)OC(C)C)C[C@@H]1C	7.13

###

organism: Homo sapiens; experiment: Selectivity index, ratio of Kd for BRD2 bromodomain 1 (74 to 194 residues) (unknown origin to Kd for BRD2 bromodomain 2 (348 to 455 residues) (unknown origin)
We use 4 as the dividing line for Selectivity Index: on or above the line is 1, below is -1.

test.smiles	class.name
CC(=O)N1c2ccc(-c3ccc[nH]3)cc2[C@H](NC(=O)OC(C)C)C[C@@H]1C	-1
CC(=O)N1c2ccc(-c3cccs3)cc2[C@H](NC(=O)OC(C)C)C[C@@H]1C	-1
CC(=O)N1c2ccc(-c3ccsc3)cc2[C@H](NC(=O)OC(C)C)C[C@@H]1C	1
CC(=O)N1c2ccc(-c3ccoc3)cc2[C@H](NC(=O)OC(C)C)C[C@@H]1C	-1
CC(=O)N1c2ccc(-c3cc[nH]c3)cc2[C@H](NC(=O)OC(C)C)C[C@@H]1C	1
